# System: B6C3F1 mice, B16 melanoma ip, median survival T/C
# PROCEDURE_DETAILS: NCI In Vivo Anticancer Drug Screen. Data for tumor model B16 Melanoma (intraperitoneal) in B6C3F1 mice
# CONDITION_DESCRIPTION: endpoint: median survival time; dose: 1.56 mg/kg/injection; schedule: Q01DX009 (ip); vehicle: saline with Tween-80; higher = longer survival
Inconclusive results and toxic doses are left out.
MEASURED_ENDPOINT: T/C

>>> observed_result("O=C1C2CC=CCC2C(=O)N1SC(Cl)(Cl)Cl (stereo unspecified)")
"97 % of control"
>>> observed_result("CN(C)CSCN(C)C")
"97 % of control"
>>> observed_result("c1cc[c]([Sn]([c]2ccccc2)([c]2ccccc2)[n]2cccc2)cc1")
"98 % of control"
>>> observed_result("NC(N)=NC(N)=Nc1ccc(-c2ccc(N=C(N)N=C(N)N)cc2)cc1")
"107 % of control"
>>> observed_result("[Cl][Hg][CH]1CCC2OC1CC[CH]2[Hg][Cl] (stereo unspecified)")
"97 % of control"
>>> observed_result("COC1=CCC23C(=O)C=CC(=O)C2(C1)C(=O)c1ccccc1C3=O (stereo unspecified)")
"99 % of control"

* * *

# System: B6C3F1 mice, B16 melanoma ip, median survival T/C
# PROCEDURE_DETAILS: NCI In Vivo Anticancer Drug Screen. Data for tumor model B16 Melanoma (intraperitoneal) in B6C3F1 mice
# CONDITION_DESCRIPTION: endpoint: median survival time; dose: 12.0 mg/kg/injection; schedule: Q01DX009 (ip); vehicle: saline with Tween-80; higher = longer survival
Inconclusive results and toxic doses are left out.
// values below are reported T/C
MEASURED_ENDPOINT: T/C

>>> observed_result("CCOC(=O)c1[nH]c2cccc3c2c1CC(Br)C3=O (centres undefined)")
"98 % of control"
>>> observed_result("CCCCCC1c2cc(O)ccc2OC1N1CCOCC1 (centres undefined)")
"103 % of control"
>>> observed_result("CN=C(N)N/N=C(\\c1ccccc1)c1ccc(Br)cc1")
"96 % of control"
>>> observed_result("CC(C)N1C(=O)N(Cl)C2C1N(Cl)C(=O)N2Cl (centres undefined)")
"94 % of control"

* * *

# Test system: B6C3F1 mice, B16 melanoma ip, median survival T/C
# PROCEDURE_DETAILS: NCI In Vivo Anticancer Drug Screen. Data for tumor model B16 Melanoma (intraperitoneal) in B6C3F1 mice
# CONDITION_DESCRIPTION: endpoint: median survival time; dose: 6.25 mg/kg/injection; schedule: Q01DX009 (ip); vehicle: saline with Tween-80; higher = longer survival
Inconclusive results and toxic doses are left out.
MEASURED_ENDPOINT: T/C

>>> observed_result("OC1COC(c2ccccc2)OC1C1OC(c2ccccc2)OC2COC(c3ccccc3)OC21 (stereo unspecified)")
"93 % of control"
>>> observed_result("Cc1c2cc(Cl)c3ccccc3c2c[n+]2ccccc12")
"108 % of control"
>>> observed_result("Cc1cc(=O)n2c3c(c4c(cc13)c(CN(C)C)cc(=O)n4C)OC2")
"105 % of control"
>>> observed_result("O=Cc1ccc(O)c(O)c1")
"100 % of control"
>>> observed_result("C=CC(=O)N1CN(C(=O)C=C)CN(C(=O)C=C)C1")
"106 % of control"
>>> observed_result("CC(Br)C(=O)c1ccc2cc(Br)c3ccccc3c2c1 (stereo unspecified)")
"100 % of control"
>>> observed_result("CN(C)CSCN(C)C")
"101 % of control"
>>> observed_result("C=C1C(=O)C23[C@H](O)C1CC[C@H]2[C@]12COC3(O)[C@@H](O)[C@@H]1C(C)(C)CC[C@@H]2O")
"115 % of control"
>>> observed_result("COc1ccc(S(=O)(=O)N=N/C=C2\\C=CC=CN2O)cc1OC")
"102 % of control"
>>> observed_result("Cn1c(=O)c2c(nc(CCCCc3nc4c(c(=O)n(C)c(=O)n4C)n3C)n2C)n(C)c1=O")
"93 % of control"
>>> observed_result("Nc1nc(Cc2ccccc2)c(CCCNc2ccccc2)c(=O)[nH]1")
"101 % of control"
